Provide the reported growth of each item.
Test system: EKVX NSCLC
Experiment: NCI-60 one-dose screen, 48 h (100 = growth as untreated, 0 = no growth, -100 = all killed)
Conditions: 10 µM
The panel holds about 83,000 compounds, 20% with a hit somewhere; the sample as a whole holds those more often.
Give the quantity in %, number only.

# growth of CC(=O)OCC1OC(OC2=C(CC=C(C)C)C(=O)c3ccccc3C2=O)C(OC(C)=O)C(OC(C)=O)C1OC(C)=O (stereo unspecified) = 15.6

Query CC(C)CCOC(=O)c1ccccc1 yields growth of 110

Briefly, growth measured for C#Cc1cccc(NC(=O)c2ccc(Cl)cc2Cl)c1 : 91.3

Per the records, this molecule ( Cc1ccc(C(=O)c2ccccc2)c(C)c1 ) has growth equal to 105

According to the records, this molecule O=C(O)C(c1ccccc1)C(O)c1ccccc1 (stereo unspecified) displays growth of 108

Summary for this molecule, OCC1OC(OC2C(O)C(CO)OC2(CO)OC2OC(CO)C(O)C(O)C2O)C(O)C(O)C1O (stereo unspecified) : growth is 103

growth in this record for COC1=CC(=O)c2nc(Cl)ccc2C1=O : 74

Data point: OCCN1CCOCC1 ; growth = 116

Measured growth of CCOC(=O)c1cc2cccc(OC)c2oc1=O : 107

For record c1ncc2[nH]cnc2n1 the listed growth is 126

Just so you know, measured growth for O=[N+]([O-])c1ccccc1N=Nc1ccc(O)cc1O came out at 116

In plain terms, O=[N+]([O-])c1ccc(Sc2ccncn2)c([N+](=O)[O-])c1 has a documented growth of 105

Quick note, growth for O=c1cc(-c2ccccc2)nc2cc(-c3ccco3)[nH]n12 landed at 89.7

Input Cc1ccc(O)c(C(=O)c2ccccc2)c1 . Output growth: 103

growth for CC(=O)NC(N)=S is 118

Measured growth of CC1=CC(C)(C)NC(=S)N1c1ccc(S(=O)(=O)O)c2cccc(S(=O)(=O)O)c12 : 115

// field: growth; key: C1CNC(C2=NCCN2)=N1 ; value = 103

# molecule Nc1ccc(NC(=O)c2cccc(N)c2)cc1 ; its growth = 86.6

Briefly, growth measured for CC(=O)c1c[nH]c2ccccc12 : 99.2

The molecule listed as C[N+](C)=c1ccc2nc3c(cc(Nc4ccccc4)c4ccccc43)oc-2c1 shows growth equal to 90.2

So, CCNCCCCNCCCCNCCCCNCCCCNCC ? Its growth was 76.2

Value of growth reported for the molecule CCN(CC)CCCC(C)Nc1ccnc(/C=C/c2ccc(Cl)cc2)c1 (stereo unspecified) is 50.5

growth measured on COc1cc(/C=C(\C#N)C(=O)c2ccccc2)ccc1OCc1ccccc1 = 107

Sample c1c(-c2cc(C3CC3)[nH]n2)n[nH]c1C1CC1 ; growth observed: 76.6

The reported value for Cc1cc(O)ccc1O in terms of growth is 94.6

So for Brc1cnc2ccccc2c1 , the logged growth turned out to be 103

The recorded growth for CCCC(=O)Nc1ccc2c(c1)CN1C(=O)c3ccccc3C1=N2 is 108

# molecule COc1cc2c(cc1O)CC[C@@H]1C2CC[C@@]2(C)C1CC[C@@H]2O (stereo partly specified) ; its growth = 37.9

get_value(item= CC1(C)/C(=C\CO)C2CCC1C2 (stereo unspecified) , readout=growth) returns 113

Note to self: growth recorded for CCOC(=O)C1=C(C)NC(=O)NC1c1cccs1 (stereo unspecified) was 109

Notebook: CN(C)CCN(Cc1ccccc1)c1ccccc1 , growth read as 110

Record summary for CCS(=O)(=O)CCCl : reported growth = 89.6

molecule O=c1[nH]nc(SC2CCCCC2)c(=O)[nH]1 , growth observed: 99.5

growth reported for this molecule COc1cc(C(=O)N/N=C/c2cccc([N+](=O)[O-])c2)cc(OC)c1OC : 83.8

Please fill in: growth reported for COc1ccccc1N=Nc1c(O)ccc2cc(S(=O)(=O)O)ccc12 = 95.2

Input CCC(=O)Oc1ccc(OC)cc1 . Output growth: 104

Per the records, this molecule ( COc1cc2cc(c1Cl)N(C)C(=O)C[C@H](OC(=O)[C@H](C)N(C)C(C)=O)[C@]1(C)O[C@H]1[C@H](C)[C@@H]1C[C@@](O)(NC(=O)O1)[C@H](OC)C=C/C=C(\C)C2 ) has growth equal to 31.3

Entry C=CC(=O)OCCCCCCCC — recorded growth = 111

growth reported for this molecule O=C1C=CC2=C3c4cc(O)c(O)cc4CC3(O)COC2=C1O (stereo unspecified) : 101

growth reading for CCCCOC(OCCCC)c1ccccc1 : 110

Briefly, growth measured for Nc1ccc(N=Nc2ccc(S(=O)(=O)O)cc2)c2ccccc12 : 89.7

---

System: NCI-H226 lung
Experiment: NCI-60 one-dose screen, 48 h (100 = growth as untreated, 0 = no growth, -100 = all killed)
Conditions: 10 µM
About 83,000 compounds went through this panel and 20% of them were active in at least one assay; those are over-represented in the sample as a whole.
observation type: growth (%)
Express it in %; write the number only.

So for O=C(c1ccc(Cl)cc1)c1ccccc1Cl , the logged growth turned out to be 99.9

Short answer for CCOC(=O)C(C#N)Cc1ccccc1 (stereo unspecified) : growth was 112

Recorded result, CCCNc1ccc(C2=NCCCN2)cc1 , growth: 104

The molecule identified as O=S(=O)(O)c1cc(O)c2c(N=Cc3ccccc3O)c(S(=O)(=O)O)ccc2c1 registered its growth at 101

# growth of C/C(O)=C(\C=N\C(N)=S)C(=O)Nc1ccccc1 = 87.1

The reported value for C[N+](C)(C)C(=O)c1ccccc1 in terms of growth is 102

For CSC[C@H](NC(=O)COc1cccc2cnccc12)C(=O)NC(Cc1ccccc1)C(O)C(=O)N1CSC[C@H]1C(=O)NC(C)(C)C (stereo partly specified) the molecule record lists growth as 105

Given item CC1(c2ccccc2)NC(=O)NC1=O (stereo unspecified) , the value recorded as its growth is 98.3

Item: CCC(C#N)(CC)c1ccccc1 | growth: 99.3

Input COc1ccc(Oc2c(I)cc(CC(NC(C)=O)C(=O)O)cc2I)cc1 (stereo unspecified) . Output growth: 73

Lab note: measured growth of O=C(O)c1cc([N+](=O)[O-])ccc1Cl was 107

Value of growth reported for the molecule NC(N)=Nc1cc2ccccc2c2ccccc12 is 89.5

Form: molecule = c1ccc(Cc2ccccc2)cc1 ; growth = 112

Memo: Nc1nc(N)c(N=Nc2ccc(C(=O)O)cc2)c(N)n1 , reported growth: 108

Data point: C=CCc1cc(C(C)=O)cc(OC)c1O ; growth = 109

Recorded growth (molecule CC(=O)Nc1cccc(NC(C)=O)n1 ): 103

Quick note, growth for CC1(C)/C(=C\CO)C2CCC1C2 (stereo unspecified) landed at 98.1

# molecule CC(=O)OC1CC2C(C)(C)OC3CC(=O)OCC32C2CCC3(C)C(=CCC3c3ccoc3)C12C (stereo unspecified) ; its growth = 98.7

Documented growth of CCS(=O)(=O)c1cc(=O)[nH]c(=O)[nH]1 : 107

The recorded growth for entry O=C1C[C@H](c2ccccc2)[C@H](c2ccccc2)C1 equals 97.6

Looking up CC(=O)Nc1ccc(NC(C)=O)c2c1C(=O)c1ccccc1C2=O , I found its growth recorded as 81.7

# growth (molecule: COc1ccc(C(O)c2ccccc2)cc1 (stereo unspecified) ) is 94

// sample COc1ccc(C2OC(N)=C(O)C2=O)cc1OC (stereo unspecified) , its growth was 97.5

Form field growth, entry CCO/C=C1\SC(=S)N(c2cccc(C)c2)C1=O : 93.4

According to the records, this molecule CC(C)(N)COS(=O)(=O)O displays growth of 104

The reported growth of the molecule N#CC(=Nc1cccc(F)c1)C1=C(O)c2ccccc2C1=O was 79.6

---

Task for the reader: assign each of the following compounds its reported growth.
Tested on: UACC-257 melanoma
Test: NCI-60 one-dose screen, 48 h (100 = growth as untreated, 0 = no growth, -100 = all killed)
Settings: 10 µM
Compounds without any hit were thinned out: in the full panel of roughly 83,000, 20% have a hit.
Just the number in %, nothing appended.

The value of growth measured for the compound CCOC(=O)C(CCC(C)C)C(=O)OCC turned out to be 97.5

For this compound ( CCC(O)CC(CC)CO (configuration not stated) ), measured growth is 110

For COc1ccccc1N=Nc1c(O)ccc2cc(S(=O)(=O)O)ccc12 the compound record lists growth as 95.8

GET /value?item= O=C(c1ccc(Cl)cc1)c1ccccc1Cl &field=growth returns 93.6

Please fill in: growth reported for CN(C)CCC(=O)c1ccc(O)cc1 = 105

Briefly, growth measured for CC(=O)Nc1c(C)cc(C)cc1C : 104

growth for CC(=Nc1ccccc1)C1=C(O)C(Cc2cccc(F)c2)NC1=O (configuration not stated) is 40.6
